Hello, the source for this data is PubChem BioAssay (NCI), in case you need it.

In this section, each of the molecules is paired with its reported GI50.
Test system: OVCAR-3 ovarian
Protocol Summary: NCI tumour cell line growth inhibition, 48 h

Task: Lab request: please report GI50 under test system OVCAR-3 ovarian for COc1ccc2c(CN3CCCC[C@H]3O)cc3cc4c(cc3c2c1)OCO4
Result: 409 nM

Task: Lab request: please report GI50 under test system OVCAR-3 ovarian for COc1ccc2c(c1)[n+](=O)c(/C=C/C(=O)c1cc(OC)c(OC)c(OC)c1)c(C)n2[O-]
Result: 2040 nM

Task: Lab request: please report GI50 under test system OVCAR-3 ovarian for CN(C)CCN=c1nc2c(c(N)n1-c1ccccc1)c(=S)n(-c1ccccc1)c(=S)n2-c1ccccc1
Result: 2890 nM

Task: Lab request: please report GI50 under test system OVCAR-3 ovarian for CSCSCC(CO)NC(=O)/C=C\c1c(C)[nH]c(=O)[nH]c1=O (configuration not stated)
Result: 1410 nM

New cases:
Task: Lab request: please report GI50 under test system OVCAR-3 ovarian for C=C(CN1CCN(c2ccccn2)CC1)c1ccc(C(=O)Nc2ccccc2N)cc1
Result: 1250 nM

Task: Lab request: please report GI50 under test system OVCAR-3 ovarian for O=C1c2ccccc2-c2c1c1ccccc1c(=O)n2CCNCCNCCNCCNCCn1c2c(c3ccccc3c1=O)C(=O)c1ccccc1-2
Result: 1450 nM

Task: Lab request: please report GI50 under test system OVCAR-3 ovarian for CCCCC[C@H]1C/C=C2/C(=O)C=C[C@@H]2C/C=C\CCCC(=O)O1
Result: 182 nM

Task: Lab request: please report GI50 under test system OVCAR-3 ovarian for CCN(CC)CC[n+]1ccc2c(C)c3[nH]c4ccccc4c3c(C)c2c1
Result: 934 nM

Task: Lab request: please report GI50 under test system OVCAR-3 ovarian for CC(=O)c1nc(-c2ccc(C[C@@H](CNC(=O)CN(C)C)NC(=O)c3ccc(OC(C)C)c(Cl)c3)cc2)cn1C
Result: 33.2 nM

Task: Lab request: please report GI50 under test system OVCAR-3 ovarian for COC(=O)c1c(C(=O)O)c(-c2ccccc2)c(-c2ccccc2)c(-c2ccccc2)c1-c1ccccc1
Result: > 100000 nM

Task: Lab request: please report GI50 under test system OVCAR-3 ovarian for COC1CCC(OC)C(c2nc3sccn3c2/C=N/N=C(N)N)C1 (configuration not stated)
Result: 7760 nM

Task: Lab request: please report GI50 under test system OVCAR-3 ovarian for S=C(Nc1ccc(-c2nc3ccccc3s2)cc1)Nc1ccc(-c2nc3ccccc3s2)cc1
Result: 24500 nM

###

System: SW-620 colon
Protocol Summary: NCI tumour cell line growth inhibition, 48 h
Result Type: TGI

Consider the worked cases shown below.
Task: Which TGI is reported for this molecule? C=C1C(=O)O[C@@H]2C[C@@H](C)[C@@H]3C=CC(=O)[C@@]3(C)[C@@H](OC(=O)CCCC(=O)O[C@H]3[C@@H]4C(=C)C(=O)O[C@@H]4C[C@@H](C)[C@@H]4C=CC(=O)[C@]43C)[C@H]12
Result: 0.0432 µM

Task: Which TGI is reported for this molecule? O=C(O)CCN1C(=S)CSC1=S
Result: > 100 µM

Task: Which TGI is reported for this molecule? CCOC(=O)NN1C(=O)C(=P(c2ccccc2)(c2ccccc2)c2ccccc2)C(C(=O)OC)=C1C
Result: > 100 µM

New cases:
Task: Which TGI is reported for this molecule? Nc1ccccc1SC(/C=C/NNC1=NC(c2ccccc2)C(c2ccccc2)=NN1)c1ccccc1 (centres undefined)
Result: 29.1 µM

Task: Which TGI is reported for this molecule? O=[N+]([O-])/C(Cl)=C(\NCCO)C(Cl)=C(Cl)Cl
Result: 77.4 µM

Task: Which TGI is reported for this molecule? COC(=O)c1c(C(=O)O)c(-c2ccccc2)c(-c2ccccc2)c(-c2ccccc2)c1-c1ccccc1
Result: > 100 µM

Task: Which TGI is reported for this molecule? CC(=O)N1CCOC12N=NC(C)(C)O2 (centres undefined)
Result: > 100 µM

Task: Which TGI is reported for this molecule? O=C(NNC(=O)c1ccncc1)C(=O)Nc1cc(Cl)c(Cl)cc1Cl
Result: > 100 µM

Task: Which TGI is reported for this molecule? CN1COCN=C1NC#N
Result: > 100 µM

###

Test system: SNB-19 CNS
Protocol Summary: NCI tumour cell line growth inhibition, 48 h
In this section, each of the compounds is paired with its reported TGI.

Consider the worked cases shown below.
Task: Which TGI is reported for this compound? C=CCN1C(=O)C[C@H](Cc2ccccc2)NC(=O)C[C@H](Cc2ccccc2)N(CC=C)C(=O)C[C@H](Cc2ccccc2)NC(=O)C[C@@H]1Cc1ccccc1
Result: > 100 µM

Task: Which TGI is reported for this compound? CSC(=S)NCc1cn(C)c2ccccc12
Result: > 100 µM

Task: Which TGI is reported for this compound? CC(C)(C)N=C1C(=O)C2(C)CCC1C2(C)C (stereo not given)
Result: > 100 µM

New cases:
Task: Which TGI is reported for this compound? O=C(NNC(=O)c1ccc(Cl)cc1NC(=O)C12CC3CC(CC(C3)C1)C2)c1ccc(Cl)cc1
Result: 39.4 µM

Task: Which TGI is reported for this compound? COc1ccc2c(c1)[n+](=O)c(/C=C/C(=O)c1cc(OC)c(OC)c(OC)c1)c(C)n2[O-]
Result: > 100 µM

###

System: MOLT-4 leukemia
Protocol Summary: NCI tumour cell line growth inhibition, 48 h
Result Type: TGI

Consider the worked cases shown below.
Task: Which TGI is reported for this compound? CCOP(=O)(OCC)C(c1ccccc1)N(C(=O)NC(F)(F)F)c1ccc(C)cc1 (stereo not given)
Result: > 100 µM

Task: Which TGI is reported for this compound? Clc1cc(Cl)nc(Nc2ccc3c(c2)CCC3)n1
Result: 69.6 µM

Task: Which TGI is reported for this compound? COc1ccc(C2C3=C(COC3=O)Oc3cc4c(cc32)OCO4)cc1OC (stereo not given)
Result: > 29.9 µM

Task: Which TGI is reported for this compound? O=c1[nH]c(=S)[nH]c2c1CCCN2
Result: > 100 µM

New cases:
Task: Which TGI is reported for this compound? CN1CCC(O)(OC(=O)C(c2ccccc2)C2(O)CCCC2)CC1 (stereo not given)
Result: > 100 µM

Task: Which TGI is reported for this compound? COc1ccccc1/C=C(\NC(=O)c1ccccc1)c1nc2ccccc2[nH]1
Result: > 100 µM

Task: Which TGI is reported for this compound? COc1cccc(C2C(C#N)=C(N)Oc3cc(OCCCCCC[P+](c4ccccc4)(c4ccccc4)c4ccccc4)ccc32)c1 (stereo not given)
Result: 3.96 µM

Task: Which TGI is reported for this compound? CC1(C)Cc2ccccc2C(C)(Cl)C(=O)N1 (stereo not given)
Result: > 10 µM

Task: Which TGI is reported for this compound? C[C@]12CC[C@H](OC(=O)Nc3ccccc3)CC1=CC[C@@H]1C2CC[C@]2(C)/C(=N/OC(=O)Nc3ccccc3)CCC12 (stereo not given in full)
Result: > 100 µM

###

Test system: HOP-92 NSCLC
Protocol Summary: NCI tumour cell line growth inhibition, 48 h
Result Type: TGI

Task: Which TGI is reported for this compound? O=C1OC2(CCCCC2)C(Oc2ccc(Cl)cc2)=C1F
Result: 82.5 µM

New cases:
Task: Which TGI is reported for this compound? CCNC(=O)COc1ccc(Cl)c(C)c1
Result: > 100 µM

Task: Which TGI is reported for this compound? CC(C)(C)OC(=O)NCCCCCCCCCCCCn1c2c(c3ccccc3c1=O)C(=O)c1ccccc1-2
Result: 39.9 µM

Task: Which TGI is reported for this compound? CC(=O)/C(=N\N=C(N)N)c1ccccc1
Result: > 100 µM

Task: Which TGI is reported for this compound? COc1ccc(-c2cn3ccnc3c(-c3ccc(Cl)cc3)n2)cc1
Result: 48.4 µM

Task: Which TGI is reported for this compound? Oc1ccc(Nc2nc(Cl)c3[nH]cnc3n2)cc1
Result: 38.2 µM

###

Tested on: HS 578T breast
Protocol Summary: NCI tumour cell line growth inhibition, 48 h
In this section, each of the compounds is paired with its reported TGI.
Record the value in µM, omitting the unit from your answer.

Task: Which TGI is reported for this compound? O=Cc1c2c(cc3c1CC1(C3)Cc3cc4c(c(C=O)c3C1)CCC4)CCC2
Result: 80.5

New cases:
Task: Which TGI is reported for this compound? COc1ccc(C2=NNC(c3sc(Cl)nc3Cl)C2)cc1 (stereo not drawn)
Result: 67.4

Task: Which TGI is reported for this compound? COc1ccc2c(c1)[n+](=O)c(/C=C/C(=O)c1cc(OC)c(OC)c(OC)c1)c(C)n2[O-]
Result: 46.6

Task: Which TGI is reported for this compound? CCCCC[C@H]1C/C=C2/C(=O)C=C[C@@H]2C/C=C\CCCC(=O)O1
Result: 16.8

Task: Which TGI is reported for this compound? CC(C)(C)c1cc(C(C)(C)C)c(SC2OC(CO)C(O)C(O)C2O)c(O)c1O (stereo not drawn)
Result: 11.6

Task: Which TGI is reported for this compound? CC(C)(C)OC(=O)NCC(c1c[nH]c2ccccc12)c1c[nH]c2ccccc12
Result: 57.8

Task: Which TGI is reported for this compound? O=C(CCC(NC(=O)OCc1ccccc1)C(=O)OCc1ccccc1)Nc1cccc(OCc2ccccc2)c1 (stereo not drawn)
Result: 39.4

Task: Which TGI is reported for this compound? C=C(CN1CCN(c2ccccn2)CC1)c1ccc(C(=O)Nc2ccccc2N)cc1
Result: 6.28

Task: Which TGI is reported for this compound? COc1ccc(-c2cn3ccnc3c(-c3ccc(Cl)cc3)n2)cc1
Result: 48.2

Task: Which TGI is reported for this compound? Cn1cc(-c2csc(-c3ccc(Cl)cc3)n2)c2cccnc21
Result: 34.4

Task: Which TGI is reported for this compound? C/C(=N\NC(=S)N1CCCC1)c1ccccn1
Result: 20.5

Task: Which TGI is reported for this compound? C[C@H](CCc1nc(C#N)c(N)o1)[C@H]1CC[C@H]2[C@@H]3CCC4C[C@@H](O)CC[C@]4(C)[C@H]3C[C@@H](O)[C@]12C (stereo partly drawn)
Result: 31.6

Task: Which TGI is reported for this compound? Cc1c(C(=O)O)sc2nc[nH]c(=O)c12
Result: 79.5
